Provenance of the data: patent US20110054149A1

Biological target: T1, GST-human NOGO-A56 (human, UniProt Q9NQC3 586-785)
T1 construct: also called hNOGO; recombinant human NOGO; not shown: Glutathione S-transferase (GST) tag encoded by vector pGEX-6P1, N-terminal to the NOGO-A fragment; the tag and linker se
T1 sequence: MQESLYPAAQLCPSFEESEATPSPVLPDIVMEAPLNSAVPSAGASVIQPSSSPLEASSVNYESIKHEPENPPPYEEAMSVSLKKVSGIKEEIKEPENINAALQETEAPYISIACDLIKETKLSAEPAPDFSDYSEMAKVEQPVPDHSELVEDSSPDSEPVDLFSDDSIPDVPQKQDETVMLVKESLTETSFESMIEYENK
Test: SPR (Biacore 3000), GST-human NOGO-A56 on CM5 chip, antibody as analyte; single experiment
Reported kon values are given for each entry in this list.
Field format: number, assumed M⁻¹ s⁻¹, no unit text.

• H6L13 (antibody, human IgG1, kappa, V domains shown, Humanised 2A10; human gamma-1 mutated constant region, human kappa; also called H6L13 FL) VH: QVQLVQSGAEVKKPGASVKVSCKASGYTFTSYWMHWVRQAPGQGLEWIGNINPSNGGTNYNEKFKSRATMTRDTSTSTAYMELSSLRSEDTAVYYCELGQGYWGQGTLVTVSS VL: DIVMTQSPLSLPVTLGQPASISCRSSKSLLYKDGKTYLNWFQQRPGQSPQLLIYLMSTRASGVPDRFSGGGSGTDFTLKISRVEAEDVGVYYCQQLVEYPLTFGQGTKLEIKR = 1.77e+06
• H14L18 (antibody, human IgG1, kappa, V domains shown, Humanised 2A10; human gamma-1 mutated constant region, human kappa) VH: QVQLVQSGAEVVKPGASVKLSCKASGYTFTSYWMHWVKQAPGQGLEWIGNINPSNGGTNYNEKFKSRATLTRDTSTSTAYMELSSLRSEDTAVYYCELGQGYWGQGTLVTVSS VL: DIVMTQDPLSNPVTLGQPVSISCRSSKSLLYKDGKTYLNWFLQRPGQSPQLLIYLMSTRASGVSDRFSGSGSGTDFTLKISRVEAEDVGVYYCQQLVEYPLTFGQGTKLEIKR = 2.41e+06

Query block: Fill blank: measured kon of the binder HcLc (chimera of 2A10: murine 2A10 VH and VL with human IgG constant regions) (antibody, V domains shown, also called 2A10 chimeric antibody; the chimera) VH: QVQLQQPGTELVKPGASVKLSCKASGYTFTSYWMHWVKQRPGQGLEWIGNINPSNGGTNYNEKFKSKATLTVDKSSSTAYMQLSSLTSEDSAVYYCELGQGYWGQGTLVTVSS VL: DIVITQDELSNPVTSGESVSISCRSSKSLLYKDGKTYLNWFLQRPGQSPQLLIYLMSTRASGVSDRFSGSGSGTDFTLEISRVKAEDVGVYYCQQLVEYPLTFGAGTKLELKR is ____.
Result block: 2.62e+06

Query block: And then H1L11 (antibody, human IgG1, kappa, V domains shown, human gamma-1 mutated constant region, human kappa) VH: QVQLVQSGAEVKKPGASVKVSCKASGYTFTSYWMHWVRQAPGQGLEWMGNINPSNGGTNYNEKFKSRVTMTRDTSTSTVYMELSSLRSEDTAVYYCELGQGYWGQGTLVTVSS VL: DIVITQSPLSLPVTLGQPASISCRSSKSLLYKDGKTYLNWFQQRPGQSPQLLIYLMSTRASGVPDRFSGGGSGTDFTLKISRVEAEDVGVYYCQQLVEYPLTFGQGTKLEIKR , what is it?
Result block: 1.33e+06

Query block: And then H14L16 (antibody, human IgG1, kappa, V domains shown, Humanised 2A10; human gamma-1 mutated constant region, human kappa) VH: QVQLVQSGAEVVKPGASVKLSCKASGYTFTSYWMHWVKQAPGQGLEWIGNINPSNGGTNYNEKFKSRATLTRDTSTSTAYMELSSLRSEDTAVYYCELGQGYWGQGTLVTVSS VL: DIVMTQSPLSNPVTLGQPVSISCRSSKSLLYKDGKTYLNWFLQRPGQSPQLLIYLMSTRASGVPDRFSGGGSGTDFTLKISRVEAEDVGVYYCQQLVEYPLTFGQGTKLEIKR , what is it?
Result block: 2.05e+06
